tested on: Acinetobacter baumannii; assay: Antibacterial activity against Acinetobacter baumannii ATCC 19606 (CO-ADD:GN_034); MIC in CAMBH media using NBS plates, by Resazurin F(560/590); assay type: functional; conditions: Concentration 20 uM, ASSAY_TEST Inhibition of Bacterial Growth, detection method Resazurin, Fluorescence (ex560/em590), MEDIA CAMHB, plate type 384well, CORNING #3640, time 18 hr
I'd appreciate it if you could supply Inhibition values for the items below.

// Inhibition value for Clc1nc(Cl)nc(-c2cn(-c3ccccc3)c3ccccc23)n1 : 12.32%

// Inhibition value for C=CCN=C(S)Nc1cccc([N+](=O)[O-])c1 : -8.3%

// Inhibition value for COc1cc2c(c3c1c(=O)c1cccc(F)c1n3C)C=CC(C)(C)O2 : 5.21%

// Inhibition value for CC(C)CNC(=O)/C=C\C(=O)O : -6.9%

// Inhibition value for CC(OC(=O)Nc1cccc(Cl)c1)C(=O)O (stereo not given) : 9.43%

// Inhibition value for Cn1c(=O)c2c(nc(Cc3ccccc3)n2C)n(C)c1=O : 12.97%

// Inhibition value for Oc1ccc(Nc2ccnc3cc(Cl)ccc23)cc1 : 16.04%

// Inhibition value for N#Cc1nnn2c1nc(N)c1c(Cl)cccc12 : 9.93%

// Inhibition value for Clc1ccccc1-c1nc2ccccc2[nH]1 : -8.21%

// Inhibition value for COc1ccc(-c2cc3ccccc3[nH]2)cc1 : -0.84%

// Inhibition value for N=C(NOC(=O)c1ccccc1)C(Cc1ccccc1)C(=O)NOC(=O)c1ccccc1 (stereo not given) : -11.45%

// Inhibition value for COc1cc(NC(C)=O)c2ncccc2c1NC(C)=O : 8.89%

// Inhibition value for O=c1cc(-c2ccc(O)cc2)oc2c(O)c(O)c(O)c(O)c12 : -15.85%

// Inhibition value for Cc1cc2nc3ccc(N(C)C)cc3[s+]c2cc1N.[Cl-] [TOLONIUM CHLORIDE] : -12.21%

// Inhibition value for Cc1cc2cc3n(c2nn1)N=C(Cl)CC3 : 6.88%

// Inhibition value for Cc1cc(NC(=O)OC(C)C)ccc1-c1ccc(NC(=O)OC(C)C)cc1C : 1.04%

// Inhibition value for Nc1ccnn1-c1ccccc1 : -6.56%

// Inhibition value for O=C(O)c1ccc(OCCOc2ccccc2)cc1 : -7.25%

// Inhibition value for CC1(C)C2CCC(CN=C(N)CSS(=O)(=O)O)C1C2 (stereo not given) : 14.08%

// Inhibition value for Oc1ccc(/N=N/c2ccccc2)c(O)c1/N=N/c1ccccc1 : 3.79%

// Inhibition value for CCN1CCC(Nc2ccnc3cc(Cl)ccc23)CC1 : -0.07%

// Inhibition value for O=C(O)/C=C\C(=O)Nc1ccc(-c2ccccc2)cc1 : 13.91%

// Inhibition value for CCOC(=O)/C=C/c1nc(O)c(C)c(C(=O)OCC)n1 : -11.68%

// Inhibition value for COc1ccc2c(=O)cc(-c3cccnc3)oc2c1OC : 8.21%

// Inhibition value for O=c1n(CC2CO2)c(=O)n(CC2CO2)c(=O)n1CC1CO1 (stereo not given) [TEROXIRONE] : -10.62%
